# Test system: Rabbit Skeletal myofibrils (rabbit psoas muscle)
# measurement protocol: Myofibril ATPase assay (PK/LDH NADH-coupled), skeletal myofibrils
# Assay type: biochemical
# assay setup: Table 8
Binning scheme for Rabbit Psoas IC25: b0: < 0.6 µM; b1: ≥ 0.6 µM and < 20 µM; b2: ≥ 20 µM

>>> discrete_label("C[C@H](NC(=O)CN1Cc2cc(F)ccc2NC1=O)c1ncc(F)cc1F [Compound B230]")
"b0"
>>> discrete_label("CC(C)c1cc(F)cnc1[C@@H](C)NC(=O)CN1Cc2c(ccc(F)c2F)NC1=O [Compound B20]")
"b2"
>>> discrete_label("C[C@@H](NC(=O)CN1Cc2c(ccc(F)c2F)NC1=O)c1ncnc(C#N)c1F [Compound B341]")
"b1"
>>> discrete_label("C[C@H](C(=O)N[C@@H](CO)c1ccc(F)cc1F)N1Cc2c(Cl)cccc2NC1=O [Compound B214]")
"b0"
>>> discrete_label("Cc1cccnc1[C@H](C)NC(=O)CN1Cc2cc(F)ccc2NC1=O [Compound B193]")
"b2"
>>> discrete_label("Cc1cc(C#N)nnc1[C@@H](C)NC(=O)CN1Cc2c(ccc(F)c2F)NC1=O [Compound B22]")
"b1"
>>> discrete_label("Cc1cc(C#N)nnc1[C@@H](C)NC(=O)CN1C(=O)Nc2ccc(F)cc2C12CC2 [Compound B328]")
"b2"
>>> discrete_label("O=C(CN1Cc2c(ccc(F)c2F)NC1=O)NC1COc2ccc(F)cc2C1 (single isomer, unassigned) [Compound B87]")
"b1"
>>> discrete_label("Cc1nc(C#N)cnc1[C@@H](C)NC(=O)CN1Cc2c(ccc(F)c2F)NC1=O [Compound B54]")
"b0"
>>> discrete_label("C[C@H](NC(=O)[C@H](C)N1Cc2c(ccc(F)c2F)NC1=O)c1ccc(F)cc1F [Compound B237]")
"b0"
>>> discrete_label("C[C@@H](NC(=O)CN1Cc2c(ccc(F)c2F)NC1=O)c1ccc(Cl)cn1 [Compound B93]")
"b1"
>>> discrete_label("C[C@H](NC(=O)CN1C(=O)Nc2ccc(F)c(F)c2[C@@H]1C)c1ccc(F)cc1F (relative stereo) [Compound B231]")
"b0"
>>> discrete_label("C[C@@H](NC(=O)CN1C(=O)Nc2ccc(C#N)cc2C12CC2)c1ncc(F)cc1F [Compound B149]")
"b0"
>>> discrete_label("C[C@@H](NC(=O)CN1Cc2c(ccc(C#N)c2F)NC1=O)c1ccc(C#N)cc1F [Compound B129]")
"b1"
>>> discrete_label("N#Cc1cc(F)c2c(c1)OC[C@H]2NC(=O)CN1C(=O)Nc2cccc(C#N)c2C12CC2 [Compound B303]")
"b0"
>>> discrete_label("Cc1cc(C#N)ncc1[C@@H](C)NC(=O)CN1Cc2c(ccc(F)c2F)NC1=O [Compound B83]")
"b0"
>>> discrete_label("C[C@@H](NC(=O)CN1Cc2c(ccc(F)c2F)NC1=O)c1cc2cccnc2cn1 [Compound B270]")
"b2"
>>> discrete_label("C[C@@H](NC(=O)CN1C(=O)Nc2ccc(F)cc2C12CC2)c1ccc(C#N)cn1 [Compound B137]")
"b0"
>>> discrete_label("C[C@H](NC(=O)C(C)(C)N1Cc2c(ccc(F)c2F)NC1=O)c1ncc(C#N)cc1F [Compound B267]")
"b1"
>>> discrete_label("C[C@@H](NC(=O)CN1Cc2c(ccc(F)c2F)NC1=O)c1ccncc1F [Compound B99]")
"b2"
>>> discrete_label("C[C@@H](NC(=O)CN1Cc2cc(F)ccc2NC1=O)c1ncccc1F [Compound B173]")
"b2"
>>> discrete_label("C[C@@H](NC(=O)CN1Cc2c(ccc(F)c2F)NC1=O)c1c(F)cncc1F [Compound B103]")
"b0"
>>> discrete_label("C[C@@H](NC(=O)[C@H](C)N1Cc2c(ccc(F)c2F)NC1=O)c1ncc(C#N)cc1F [Compound B272]")
"b1"
>>> discrete_label("C[C@@H](NC(=O)CN1Cc2c(ccc(F)c2F)NC1=O)c1cc2c(cn1)OCCN2 [Compound B364]")
"b2"
>>> discrete_label("C[C@H](NC(=O)CN1C(=O)Nc2ccccc2[C@H]1C)c1ncc(F)cc1F [Compound B161]")
"b1"
>>> discrete_label("C[C@H](NC(=O)[C@@H](Cc1ccccc1)N1Cc2cc(F)ccc2NC1=O)c1ccc(F)cc1F [Compound B220]")
"b2"
>>> discrete_label("C[C@H](NC(=O)CN1Cc2c(F)cc(C#N)cc2NC1=O)c1ccc(C#N)cc1F [Compound B11]")
"b2"
>>> discrete_label("C[C@@H](NC(=O)CN1Cc2cc(F)cc(Cl)c2NC1=O)c1ccc(C#N)cc1F [Compound B40]")
"b2"
>>> discrete_label("Cc1ncc(C#N)nc1[C@@H](C)NC(=O)CN1Cc2c(ccc(F)c2F)NC1=O [Compound B348]")
"b1"
>>> discrete_label("Cc1cccc2c1C1(CC1)N(CC(=O)N[C@H](C)c1cnc(C#N)cn1)C(=O)N2 [Compound B301]")
"b1"
>>> discrete_label("C[C@H](NC(=O)CN1C(=O)Nc2ccc(F)c(F)c2C12CC2)c1ncc(C#N)cc1Cl [Compound B307]")
"b0"

###

# Tested on: Porcine Atria myofibrils
# measurement protocol: Myofibril ATPase assay (PK/LDH NADH-coupled), atria myofibrils
# Assay type: biochemical
# assay setup: Table 8
readout: Porcine Atria IC25 (nM)

>>> val("N#Cc1cnc2c(c1)CC[C@H]2NC(=O)CN1Cc2c(ccc(F)c2F)NC1=O")
70
>>> val("Cc1cc([C@@H](C)NC(=O)CN2Cc3c(ccc(F)c3F)NC2=O)ncc1F")
2030
>>> val("N#Cc1c(F)ccc2c1CN(CC(=O)N[C@@H](CO)c1ccc(F)cc1F)C(=O)N2")
170
>>> val("C[C@H](NC(=O)[C@H](C)N1Cc2cc(F)ccc2NC1=O)c1ccc(F)cc1F")
58710
>>> val("Cc1nc([C@@H](C)NC(=O)CN2Cc3c(ccc(F)c3F)NC2=O)cnc1C#N")
80
>>> val("C[C@@H](NC(=O)CN1Cc2c(ccc(F)c2F)NC1=O)c1ccc2ncccc2n1")
550
>>> val("Cc1cccnc1[C@H](C)NC(=O)CN1Cc2c(ccc(F)c2F)NC1=O")
100000
>>> val("C[C@H](NC(=O)CN1Cc2c(ccc(F)c2F)NC1=O)c1c(F)cncc1F")
2790

###

# target of assay: Porcine Ventricle myofibrils (left ventricle of Yucatan minipigs) (Sus scrofa)
# Construct: Myofibrils from porcine cardiac muscle was isolated from the left ventricle of Yucatan minipigs; tissue Exemplar Genetics; host or cells: left ventricle of Yucatan minipigs
# Sequence (P79293 whole entry): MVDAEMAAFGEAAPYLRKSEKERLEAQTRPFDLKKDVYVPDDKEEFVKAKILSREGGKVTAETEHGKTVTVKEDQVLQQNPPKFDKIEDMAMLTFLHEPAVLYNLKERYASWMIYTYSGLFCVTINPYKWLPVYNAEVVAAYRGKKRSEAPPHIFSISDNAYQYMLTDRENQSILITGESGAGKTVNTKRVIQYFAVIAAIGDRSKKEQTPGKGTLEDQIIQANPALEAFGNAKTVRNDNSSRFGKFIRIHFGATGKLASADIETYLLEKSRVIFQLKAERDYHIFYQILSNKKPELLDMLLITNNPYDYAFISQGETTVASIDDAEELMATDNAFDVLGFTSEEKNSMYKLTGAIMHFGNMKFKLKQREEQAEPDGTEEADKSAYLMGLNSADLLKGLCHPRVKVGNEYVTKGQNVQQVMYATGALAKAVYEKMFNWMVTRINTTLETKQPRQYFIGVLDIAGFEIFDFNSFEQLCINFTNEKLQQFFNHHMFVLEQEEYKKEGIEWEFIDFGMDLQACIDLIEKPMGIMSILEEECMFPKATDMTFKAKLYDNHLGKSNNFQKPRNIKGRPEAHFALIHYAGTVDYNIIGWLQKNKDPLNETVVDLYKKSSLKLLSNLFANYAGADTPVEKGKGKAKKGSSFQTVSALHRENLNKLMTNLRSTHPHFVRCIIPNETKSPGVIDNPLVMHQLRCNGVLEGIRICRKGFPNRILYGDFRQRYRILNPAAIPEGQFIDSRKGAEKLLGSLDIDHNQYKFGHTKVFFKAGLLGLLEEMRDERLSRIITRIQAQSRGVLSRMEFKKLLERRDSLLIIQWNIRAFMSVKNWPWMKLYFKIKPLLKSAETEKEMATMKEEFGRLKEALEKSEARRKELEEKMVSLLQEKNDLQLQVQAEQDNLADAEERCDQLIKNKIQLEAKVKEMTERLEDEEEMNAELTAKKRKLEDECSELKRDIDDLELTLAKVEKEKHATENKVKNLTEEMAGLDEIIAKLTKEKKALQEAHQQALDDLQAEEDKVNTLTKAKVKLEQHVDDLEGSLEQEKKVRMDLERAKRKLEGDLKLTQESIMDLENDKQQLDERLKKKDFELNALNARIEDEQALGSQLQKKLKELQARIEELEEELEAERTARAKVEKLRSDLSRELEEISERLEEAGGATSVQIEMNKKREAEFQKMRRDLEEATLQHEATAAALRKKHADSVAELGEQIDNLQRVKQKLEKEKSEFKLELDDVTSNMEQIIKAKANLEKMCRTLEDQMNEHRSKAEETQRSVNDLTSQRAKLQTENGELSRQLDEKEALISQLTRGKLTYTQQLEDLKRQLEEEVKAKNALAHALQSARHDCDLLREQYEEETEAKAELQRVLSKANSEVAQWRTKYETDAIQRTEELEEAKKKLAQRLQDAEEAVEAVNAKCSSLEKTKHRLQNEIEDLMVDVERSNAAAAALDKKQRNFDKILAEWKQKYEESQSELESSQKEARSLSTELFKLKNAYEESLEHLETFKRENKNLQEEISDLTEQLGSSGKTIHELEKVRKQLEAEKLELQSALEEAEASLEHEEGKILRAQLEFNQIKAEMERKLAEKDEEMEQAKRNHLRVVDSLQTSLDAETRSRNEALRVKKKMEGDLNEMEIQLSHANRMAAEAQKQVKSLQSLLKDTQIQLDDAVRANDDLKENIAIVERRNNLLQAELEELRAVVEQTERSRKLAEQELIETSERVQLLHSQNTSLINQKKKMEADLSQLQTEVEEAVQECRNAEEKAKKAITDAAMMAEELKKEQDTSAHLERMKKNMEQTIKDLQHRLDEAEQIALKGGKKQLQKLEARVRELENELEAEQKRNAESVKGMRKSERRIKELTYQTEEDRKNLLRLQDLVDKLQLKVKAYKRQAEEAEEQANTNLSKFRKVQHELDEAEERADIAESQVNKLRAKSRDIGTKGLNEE
# measurement protocol: Myofibril ATPase assay (PK/LDH NADH-coupled), ventricle myofibrils
# Type: biochemical
# assay setup: Table 8
# Protocol: Myofibril ATPase assays are known in the art to be useful in evaluating small molecules for the treatment of HCM and other cardiac indications. Myosin ATPase activity is assessed by using a coupled reaction system, in which ADP generated by the myosin ATPase function is coupled to the disappearance of NADH through the pyruvate kinase/lactate dehydrogenase (PK-LDH) system. ATPase activity produces ADP, which is used as a substrate for PK to produce pyruvate and regenerate ATP. […]
readout: Porcine Ventricle IC25 (µM)

>>> val("C[C@@H](NC(=O)[C@H](C)N1Cc2cc(F)ccc2NC1=O)c1ccc(F)cc1F")
100
>>> val("Cc1nc(C#N)cnc1[C@@H](CO)NC(=O)CN1Cc2c(ccc(F)c2F)NC1=O")
3.83
>>> val("C[C@H](NC(=O)CN1Cc2cc(C#N)ccc2NC1=O)c1ncc(C#N)cc1F")
47.42
>>> val("C[C@@H](NC(=O)CN1Cc2c(ccc(F)c2F)NC1=O)c1ncc(Cl)cc1F")
0.4092
>>> val("C[C@H](NC(=O)CN1C(=O)Nc2ccc(F)c(F)c2[C@@H]1C)c1ccc(F)cc1F (relative stereo)")
1.558
>>> val("CC(C)C[C@H](C(=O)N[C@H](C)c1ccc(F)cc1F)N1Cc2cc(F)ccc2NC1=O (single isomer, unassigned)")
9.364
>>> val("CC(C)C[C@H](C(=O)N[C@H](C)c1ccc(F)cc1F)N1Cc2c(ccc(F)c2F)NC1=O")
100
>>> val("C[C@@H](NC(=O)CN1Cc2c(ccc(F)c2F)NC1=O)c1cc2c(cn1)OCCN2")
100.00
>>> val("Cc1cccc2c1C1(CC1)N(CC(=O)N[C@H]1COc3cc(C#N)cc(F)c31)C(=O)N2")
3.91
>>> val("O=C(CN1Cc2c(ccc(F)c2F)NC1=O)N[C@H]1COCc2cc(F)cc(F)c21")
100
>>> val("C[C@H](NC(=O)CN1Cc2c(ccc(F)c2F)NC1=O)c1ccncc1F")
0.7409
>>> val("C[C@@H](NC(=O)CN1Cc2c(ccc(F)c2F)NC1=O)c1ccc(C#N)cn1")
15.88
>>> val("C[C@@H](NC(=O)CN1Cc2c(ccc(F)c2F)NC1=O)c1ncc(F)cc1F")
50.31
>>> val("C[C@H](NC(=O)[C@@H](C)N1Cc2cc(F)ccc2NC1=O)c1ccc(F)cc1F")
1.243
>>> val("Cc1cc(C#N)cnc1[C@@H](C)NC(=O)CN1Cc2c(ccc(F)c2F)NC1=O")
0.6039
>>> val("C[C@H](NC(=O)CN1Cc2c(ccc(F)c2F)NC1=O)c1cc2c(cn1)N(C)CCO2")
100.00
